Assay: Molar extinction coefficient at i-line (365 nm), UV-visible spectrophotometer
Format: physicochemical
Settings: 365 nm (i-line), 0.25 mmol/L in acetonitrile, 1 cm cell

>  <COMPOUND>
CN(OS(=O)(=O)CC12CCC(CC1=O)C2(C)C)C(=O)c1c2ccccc2cc2ccccc12 (stereo not shown)

>  <UNIT TAG>
L/mol/cm

>  <Molar extinction coefficient>
9000

$$$$
>  <COMPOUND>
CC1(C)C2CCC1(CS(=O)(=O)OC1C(=O)c3cccc4cccc(c34)C1=O)C(=O)C2 (stereo not shown) [A′-1, reference compound]

>  <UNIT TAG>
L/mol/cm

>  <Molar extinction coefficient>
330

$$$$
>  <COMPOUND>
CC(=O)c1ccc(Sc2ccc(C(=O)N(C)OS(=O)(=O)CC34CCC(CC3=O)C4(C)C)cc2)cc1 (stereo not shown)

>  <UNIT TAG>
L/mol/cm

>  <Molar extinction coefficient>
450

$$$$
>  <COMPOUND>
CN(OS(=O)(=O)CC12CCC(CC1=O)C2(C)C)C(=O)c1ccc2ccccc2c1 (stereo not shown)

>  <UNIT TAG>
L/mol/cm

>  <Molar extinction coefficient>
80

$$$$

----------
Assay: Solvent solubility
Type: physicochemical
Conditions: PGMEA, 25° C.
Solvent solubility, PGMEA by entry:
METRIC NAME: Solvent solubility, PGMEA (wt %)

>  <COMPOUND>
COc1cc2c(OC)cccc2cc1C(=O)N(C)OS(=O)(=O)c1c(F)c(F)c(F)c(F)c1F [A-5]

>  <REPORTED VALUE>
10

$$$$
>  <COMPOUND>
COc1cc2c(OC)cccc2cc1C(=O)N(C)OS(C)(=O)=O [A-4]

>  <REPORTED VALUE>
20

$$$$
>  <COMPOUND>
COc1cc2c(OC)cccc2cc1C(=O)N(C)OS(=O)(=O)CC12CCC(CC1=O)C2(C)C (stereo not drawn) [A-3]

>  <REPORTED VALUE>
15

$$$$
